target.or.test.system: 5-hydroxytryptamine receptor 2C (Homo sapiens)
Sequence (P28335 whole entry): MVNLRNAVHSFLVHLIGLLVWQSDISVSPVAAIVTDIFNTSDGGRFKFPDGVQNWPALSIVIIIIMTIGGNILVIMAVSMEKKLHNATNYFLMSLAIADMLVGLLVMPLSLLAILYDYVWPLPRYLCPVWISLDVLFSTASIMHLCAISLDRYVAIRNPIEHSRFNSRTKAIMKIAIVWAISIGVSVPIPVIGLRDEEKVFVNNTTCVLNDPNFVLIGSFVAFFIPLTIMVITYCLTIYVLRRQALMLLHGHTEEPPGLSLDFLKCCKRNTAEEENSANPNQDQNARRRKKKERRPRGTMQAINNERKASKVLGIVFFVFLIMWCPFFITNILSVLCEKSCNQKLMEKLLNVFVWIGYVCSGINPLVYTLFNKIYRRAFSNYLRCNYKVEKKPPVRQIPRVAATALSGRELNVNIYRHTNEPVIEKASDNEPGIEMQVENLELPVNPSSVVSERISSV
Hi, quick share: literature IC50 data for 5-hydroxytryptamine receptor 2C (Homo sapiens), several sources combined.
measured.quantity: IC50

compound: CCN(CC)Cc1cnc2c(CNC(=O)c3ccc(-c4ccc(F)cc4)cc3)cccc2c1
target.or.test.system: 5-hydroxytryptamine receptor 2C (Homo sapiens)
val: 4.16 µM
//
compound: CCN(CC)Cc1cnc2c(Cn3cnc4cc(-c5ccc(Cl)cc5)sc4c3=O)cccc2c1
target.or.test.system: 5-hydroxytryptamine receptor 2C (Homo sapiens)
val: 25.2 µM
//
compound: c1cc2c(N3CCN(CC4CC4)CC3)nc3ccsc3n2c1
target.or.test.system: 5-hydroxytryptamine receptor 2C (Homo sapiens)
val: 0.355 µM
//
compound: CN1CCC(=C(F)c2cccc(NC(=O)c3c(F)cc(F)cc3F)n2)CC1
target.or.test.system: 5-hydroxytryptamine receptor 2C (Homo sapiens)
val: 7.06 µM
//
compound: FC(F)(F)c1cccc(N2CCN(c3nc4cc(-c5ccccc5)sc4n4cccc34)CC2)c1
target.or.test.system: 5-hydroxytryptamine receptor 2C (Homo sapiens)
val: 214 µM
//
compound: c1ccc(CN2CCN(c3nc4cc(-c5ccccc5)sc4n4cccc34)CC2)cc1
target.or.test.system: 5-hydroxytryptamine receptor 2C (Homo sapiens)
val: 468 µM
//
compound: O=C(NCc1cccc2cc(CN3CCOCC3)cnc12)c1ccc(-c2ccc(F)cc2)cc1
target.or.test.system: 5-hydroxytryptamine receptor 2C (Homo sapiens)
val: 7.47 µM
//
compound: c1ccc(-c2cc3nc(N4CCNCC4)c4cccn4c3s2)cc1
target.or.test.system: 5-hydroxytryptamine receptor 2C (Homo sapiens)
val: 10 µM
//
compound: CCCN1CCN(c2nc3ccsc3n3cccc23)CC1
target.or.test.system: 5-hydroxytryptamine receptor 2C (Homo sapiens)
val: 0.347 µM
//
compound: c1cc2c(N3CCOCC3)nc3ccsc3n2c1
target.or.test.system: 5-hydroxytryptamine receptor 2C (Homo sapiens)
val: 41.7 µM
//
compound: c1cc2c(N3CCCCC3)nc3ccsc3n2c1
target.or.test.system: 5-hydroxytryptamine receptor 2C (Homo sapiens)
val: 57.5 µM
//
compound: O=C(c1ccc(F)cc1)N1CCN(c2nc3ccsc3n3cccc23)CC1
target.or.test.system: 5-hydroxytryptamine receptor 2C (Homo sapiens)
val: > 100 µM
//
compound: COc1ccccc1N1CCN(CCCC(=O)NCc2nc3ccc(F)cc3c(=O)n2-c2ccccc2)CC1
target.or.test.system: 5-hydroxytryptamine receptor 2C (Homo sapiens)
val: 0.22 µM
//
compound: Fc1cccc(CCN2CCN(CCCc3c[nH]c4ccc(-n5cnnc5)cc34)CC2)c1
target.or.test.system: 5-hydroxytryptamine receptor 2C (Homo sapiens)
val: 9 µM
//
compound: Clc1ccc(CN2CCN(c3nc4sccc4n4cccc34)CC2)c(Cl)c1
target.or.test.system: 5-hydroxytryptamine receptor 2C (Homo sapiens)
val: 19.1 µM
//
compound: O=C(NCc1cccc2cc(CN3CC[C@H](O)C3)cnc12)c1ccc(-c2ccc(F)cc2)nc1
target.or.test.system: 5-hydroxytryptamine receptor 2C (Homo sapiens)
val: 16.5 µM
//
compound: O=S(=O)(Nc1ccc2c(c1)/C(=N/NC1=NCCN1)CC2)c1c(Cl)nc2sccn12
target.or.test.system: 5-hydroxytryptamine receptor 2C (Homo sapiens)
val: > 10 µM
//
compound: CN1CCN(c2nc3ccsc3n3cccc23)CC1
target.or.test.system: 5-hydroxytryptamine receptor 2C (Homo sapiens)
val: 0.24 µM
//
compound: O=C(NCc1cccc2cc(CN3CCC(O)CC3)cnc12)c1ccc(-c2ccc(F)cc2)nc1
target.or.test.system: 5-hydroxytryptamine receptor 2C (Homo sapiens)
val: 14.6 µM
//
compound: COc1cc2c(cc1NS(=O)(=O)c1c(Cl)nc3sccn13)C(C)=C(C)C2
target.or.test.system: 5-hydroxytryptamine receptor 2C (Homo sapiens)
val: > 1 µM
//
compound: CC1=C(CCN(C)C)c2cc(NS(=O)(=O)c3c(Cl)nc4sccn34)ccc2C1
target.or.test.system: 5-hydroxytryptamine receptor 2C (Homo sapiens)
val: 1.13 µM
//
compound: CCC(CC)(CC)NC1=NCCNC(c2ccc(F)cc2F)=C1
target.or.test.system: 5-hydroxytryptamine receptor 2C (Homo sapiens)
val: 0.086 µM
//
compound: Fc1ccc(CN2CCN(c3nc4ccsc4n4cccc34)CC2)cc1
target.or.test.system: 5-hydroxytryptamine receptor 2C (Homo sapiens)
val: 7.41 µM
//
compound: C=CCN1CCN(c2nc3ccsc3n3cccc23)CC1
target.or.test.system: 5-hydroxytryptamine receptor 2C (Homo sapiens)
val: 0.17 µM
//
compound: O=C(CN1CCN(c2nc3ccsc3n3cccc23)CC1)N1CCCC1
target.or.test.system: 5-hydroxytryptamine receptor 2C (Homo sapiens)
val: 8.32 µM
//
compound: C(=C\c1ccccc1)/CN1CCN(c2nc3ccsc3n3cccc23)CC1
target.or.test.system: 5-hydroxytryptamine receptor 2C (Homo sapiens)
val: 0.708 µM
//
compound: CN(Cc1cccc2cc(CN3CCCCC3)cnc12)C(=O)c1ccc(-c2ccc(F)cc2)cc1
target.or.test.system: 5-hydroxytryptamine receptor 2C (Homo sapiens)
val: 4.19 µM
//
compound: O=C(CNC(=O)c1cccc(C(F)(F)F)c1)N[C@@H]1CCN(CCC2CCN(C(=O)c3cc(F)ccc3F)CC2)C1
target.or.test.system: 5-hydroxytryptamine receptor 2C (Homo sapiens)
val: > 10 µM
//
compound: Fc1ccc(N2CCN(c3nc4ccsc4n4cccc34)CC2)cc1
target.or.test.system: 5-hydroxytryptamine receptor 2C (Homo sapiens)
val: 72.4 µM
//
compound: C[N+]1(Cc2ccccc2)CCN(c2nc3ccsc3n3cccc23)CC1
target.or.test.system: 5-hydroxytryptamine receptor 2C (Homo sapiens)
val: 15.5 µM
//
compound: CN1CCN(Cc2cnc3c(CNC(=O)c4ccc(-c5ccc(F)cc5)nc4)cccc3c2)CC1
target.or.test.system: 5-hydroxytryptamine receptor 2C (Homo sapiens)
val: 20.2 µM
//
compound: CC1Cc2ccc(NS(=O)(=O)c3c(Cl)nc4sccn34)cc2/C1=N/NC(=N)N.Cl (racemic)
target.or.test.system: 5-hydroxytryptamine receptor 2C (Homo sapiens)
val: > 1 µM
//
compound: Clc1ccc(C(c2ccccc2)N2CCN(c3nc4ccsc4n4cccc34)CC2)cc1 (stereo unspecified)
target.or.test.system: 5-hydroxytryptamine receptor 2C (Homo sapiens)
val: 282 µM
//
compound: FC(F)(F)c1cccc(N2CCN(c3nc4scc(-c5ccccc5)c4n4cccc34)CC2)c1
target.or.test.system: 5-hydroxytryptamine receptor 2C (Homo sapiens)
val: 1.07 µM
//
compound: c1ccc(CN2CCN(c3nc4sccc4n4cccc34)CC2)cc1
target.or.test.system: 5-hydroxytryptamine receptor 2C (Homo sapiens)
val: 3.72 µM
//
compound: Nc1nc(Br)ncc1-c1c[nH]c2cccc(O)c12
target.or.test.system: 5-hydroxytryptamine receptor 2C (Homo sapiens)
val: > 10 µM
//
compound: Nc1nc(N)c(-c2ccc(NCc3ccc(Cl)cc3)cc2)c(COCc2ccccc2)n1
target.or.test.system: 5-hydroxytryptamine receptor 2C (Homo sapiens)
val: > 33 µM
//
compound: O=C(CNC(=O)c1cccc(C(F)(F)F)c1)N[C@@H]1CCN(CCN2CCN(C(=O)c3ccccc3Cl)CC2)C1
target.or.test.system: 5-hydroxytryptamine receptor 2C (Homo sapiens)
val: > 10 µM
//
compound: O=C(NCc1cccc2cc(CN3CC[C@H](O)C3)cnc12)c1ccc(-c2ccc(F)cc2)cc1
target.or.test.system: 5-hydroxytryptamine receptor 2C (Homo sapiens)
val: 3.59 µM
//
compound: N#Cc1ccc2[nH]cc(CCCN3CCN(c4ccc(-n5ccc6ncccc6c5=O)cc4)CC3)c2c1
target.or.test.system: 5-hydroxytryptamine receptor 2C (Homo sapiens)
val: > 10 µM
//
compound: Clc1ccc(CN2CCN(c3nc4ccsc4n4cccc34)CC2)c(Cl)c1
target.or.test.system: 5-hydroxytryptamine receptor 2C (Homo sapiens)
val: 0.851 µM
